- target_or_test_system: Dual specificity protein phosphatase 3 (Homo sapiens, UniProt P51452)
- Sequence (P51452 whole entry): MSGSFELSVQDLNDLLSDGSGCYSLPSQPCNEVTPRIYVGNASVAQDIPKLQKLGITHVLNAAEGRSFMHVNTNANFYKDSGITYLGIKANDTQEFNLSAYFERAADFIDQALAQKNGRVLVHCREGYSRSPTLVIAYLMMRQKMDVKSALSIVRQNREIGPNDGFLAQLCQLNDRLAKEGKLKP
- assay_details: Inhibitory Activity against Recombinant Human VHR
pIC50: −log10 of the molar value.
quantity_measured: pIC50

Examples from the recorded data:
- molecule: "COc1cc(CC/N=C2\\C=C(O)c3cccnc3C2=O)ccc1O"
  target_or_test_system: "Dual specificity protein phosphatase 3 (Homo sapiens, UniProt P51452)"
  measurement: 4.77
- molecule: "COC(=O)c1nc(-c2ccc3c(n2)C(=O)C(=N)C(OC)=C3O)c(N)c(-c2ccc(OC)c(OC)c2O)c1C"
  target_or_test_system: "Dual specificity protein phosphatase 3 (Homo sapiens, UniProt P51452)"
  measurement: 5.29

1. CC(/N=C1\C=C(O)c2cccnc2C1=O)C(O)c1ccccc1 (stereo unspecified)
2. O=C1/C(=N/CCc2cc(Br)c(O)c(Br)c2)C=C(O)c2cccnc21
3. O=C1C(Cl)=C(NCCN2CCOCC2)C(=O)c2ncccc21
Inquiry: List from greatest to least pIC50. Order the labels as requested and give them as your answer.
Reply text: 3, 2, 1

Data provenance is ChEMBL document CHEMBL1134280.
